# Assay details: Drug metabolism in human liver microsomes at 1 uM incubated for 60 mins by LC-MS/MS analysis
# Format: ADME
# Test settings: read-out: Drug metabolism
Measured metric: metabolised at 1 h, 1 µM (%)
Respond with the bare value in %.

Give a short answer stating reported metabolised at 1 h, 1 µM for CNCCCc1cncc(CCc2cc(C)cc(N)n2)c1 .
23

* * *

# Experimental target: UniProt:P29477
# Sequence (P29477 whole entry): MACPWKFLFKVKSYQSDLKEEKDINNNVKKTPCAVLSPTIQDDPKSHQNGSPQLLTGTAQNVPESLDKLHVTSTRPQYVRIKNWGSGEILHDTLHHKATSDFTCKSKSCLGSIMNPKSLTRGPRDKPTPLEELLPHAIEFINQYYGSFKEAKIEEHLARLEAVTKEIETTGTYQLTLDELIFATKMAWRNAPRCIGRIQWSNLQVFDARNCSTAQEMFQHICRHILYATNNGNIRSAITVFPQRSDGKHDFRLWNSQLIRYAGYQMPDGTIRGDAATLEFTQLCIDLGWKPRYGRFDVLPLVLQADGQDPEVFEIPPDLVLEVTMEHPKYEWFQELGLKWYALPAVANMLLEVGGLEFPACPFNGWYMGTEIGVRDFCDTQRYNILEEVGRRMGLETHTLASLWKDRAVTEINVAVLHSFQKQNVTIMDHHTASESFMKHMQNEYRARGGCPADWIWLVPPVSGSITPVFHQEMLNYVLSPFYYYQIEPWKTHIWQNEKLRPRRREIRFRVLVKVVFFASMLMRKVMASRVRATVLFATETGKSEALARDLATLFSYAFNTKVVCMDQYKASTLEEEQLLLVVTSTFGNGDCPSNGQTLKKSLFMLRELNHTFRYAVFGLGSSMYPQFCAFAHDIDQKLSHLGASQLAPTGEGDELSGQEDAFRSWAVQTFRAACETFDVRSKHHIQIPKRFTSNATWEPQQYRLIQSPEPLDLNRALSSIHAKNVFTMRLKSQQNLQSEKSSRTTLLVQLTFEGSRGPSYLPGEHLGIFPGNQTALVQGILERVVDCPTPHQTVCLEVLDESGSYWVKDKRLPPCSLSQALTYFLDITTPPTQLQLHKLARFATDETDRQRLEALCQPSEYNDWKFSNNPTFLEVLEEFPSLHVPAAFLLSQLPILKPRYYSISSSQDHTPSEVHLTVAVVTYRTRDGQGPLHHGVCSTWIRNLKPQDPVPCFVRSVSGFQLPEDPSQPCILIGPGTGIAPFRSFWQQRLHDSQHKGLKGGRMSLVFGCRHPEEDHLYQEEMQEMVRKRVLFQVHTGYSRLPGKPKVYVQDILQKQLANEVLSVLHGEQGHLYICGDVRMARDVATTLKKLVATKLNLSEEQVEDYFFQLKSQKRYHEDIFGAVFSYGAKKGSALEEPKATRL
# Assay details: Inhibition of recombinant mouse macrophage iNOS expressed in Escherichia coli using L-arginine as substrate assessed as reduction in NO production measured for 6 mins by hemoglobin capture assay
Measured metric: Ki (µM)
Respond numerically; units are µM and should not be typed.

// fetch Ki; item: Cc1cc(N)nc(CCc2cccnc2)c1 ; system: UniProt:P29477
2.78

Please tell me the measured Ki for Cc1cc(N)nc(CCc2cncc(N3CCCCC3)c2)c1 ; system: UniProt:P29477.
5.64
